Value source: PubChem BioAssay (NCI)

# Tested on: OVCAR-3 ovarian
# Method description: NCI-60 one-dose screen, 48 h
# Measurement context: 10 µM unless noted
The panel holds about 83,000 compounds, 20% with a hit somewhere; the sample as a whole holds those more often. Calls of active or inactive are those of the source. The calls were made as follows: active = growth percent below 10; inactive = the rest.
Outcomes: Y = active, N = inactive

Compound	Group
CCCOC(=O)c1ccc([N+](=O)[O-])o1	N
COc1cc2c(cc1OC)-c1c(oc3c4c(ccc3c1=O)OC(C)(C)C=C4)CO2	N
Cc1cc[n+](CCCC[n+]2ccc(C)cc2)cc1	N
COc1ccc(-c2ccc(NC(=O)Nc3cccc(C(F)(F)F)c3)c(C)n2)cc1	N
O=C(Nc1ccc(-n2ccc3c(NC(=O)c4ccccc4)ncnc32)cc1)Nc1cccc(Cl)c1Cl	Y
O=C(Nc1ccc(Cl)c(Cl)c1)Nc1ccc(Cl)c([N+](=O)[O-])c1	Y
CCCCN(CCCC)c1ccc(C(=N)c2ccc(N(C)C)cc2)cc1	Y
Nc1nc(Cl)c2c(C(F)(F)F)cn(CC3CCNCC3)c2n1	N
COc1cc2ncnc(Oc3ccc(NC(=O)Nc4ccc(C5(C#N)CCCC5)cc4)c4ccccc34)c2cc1OC	N
C=CC(=O)NC(=O)Nc1ccccc1Cl	N
COc1ccc(-c2nnc(SCC(=O)Nc3ccc(C(=O)/C=C/c4ccc(OC)c(OC)c4)cc3)o2)cc1	N

* * *

# Test system: K-562 leukemia
# Method description: NCI-60 one-dose screen, 48 h
# Measurement context: 10 µM unless noted
About 83,000 compounds went through this panel and 20% of them were active in at least one assay; those are over-represented in the sample as a whole. Calls of active or inactive are those of the source. How the source made its calls: active means growth percent below 10; inactive means the rest.
Labels: active, inactive

Compound	System	Group
NC(=S)NNC1CCCCC1	K-562 leukemia	inactive
CNCCCOc1c(Br)cc(CCNC(=O)/C(Cc2ccc(OC)c(Br)c2)=N/O)cc1Br	K-562 leukemia	active
Cc1cc(Nc2ccc(Cl)c(Cl)c2)nc(N)n1	K-562 leukemia	inactive
O=C(Nc1cccc(-n2ccc3c(NC(=O)c4ccccc4)nccc32)c1)c1cccc(C(F)(F)F)c1	K-562 leukemia	inactive
COc1ccc(/C(=C/c2cc(OC)c(OC)c(OC)c2)[N+](=O)[O-])cc1	K-562 leukemia	active
FC(F)(F)c1cccc([Si](F)(c2cccc(C(F)(F)F)c2)c2cccc(C(F)(F)F)c2)c1	K-562 leukemia	inactive
CCCCNc1cc(C(=O)O)cc(S(N)(=O)=O)c1Oc1ccccc1	K-562 leukemia	inactive
COc1ccc2c(c1)OC(N)=C(C#N)C2c1ccc(F)cc1 (stereo not given)	K-562 leukemia	inactive
O=C(NCCNc1nccc(-c2c(-c3cccc(O)c3)nc3sccn23)n1)Nc1cccc(C(F)(F)F)c1	K-562 leukemia	inactive
O=C(Nc1ccc(-n2cc(-c3ccncc3)c(-c3ccc(O)c(Cl)c3)n2)cc1)Nc1cccc(Cl)c1Cl	K-562 leukemia	inactive

* * *

compounds and their reported growth
# System: A498 renal
# Method description: NCI-60 one-dose screen, 48 h (100 = growth as untreated, 0 = no growth, -100 = all killed)
# Measurement context: 10 µM unless noted
# Experimental: Growth inhibition of the A498 human tumor cell line is measured as a screen for anti-cancer activity. Cells are grown in 96 well plates and exposed to the test compound for 48 hours. Compounds are tested at a single concentration, which is 10^-5 M for most compounds. The reported endpoint is percent growth (GI% or GIPRCNT), where numbers from 0 - 100% represent growth inhibition, and numbers from -100% - 0 represent cell death. For example, a value of 40 represents 60% growth inhibition. […]
Compounds without any hit were thinned out: in the full panel of roughly 83,000, 20% have a hit.

Compound	Measurement units	growth
O=C(NCCNc1nccc(-c2c(-c3cccc(O)c3)nc3sccn23)n1)c1ccc(N2CCOCC2)c(C(F)(F)F)c1	%	47.8
COc1cc([C@@H]2c3cc4c(cc3C(OC3O[C@@H]5COC(C)O[C@H]5[C@H](O)[C@H]3O)C3COC(=O)[C@@H]32)OCO4)cc(OC)c1O (stereo partly specified)	%	36.2
COc1cc(C(=O)NNC(=O)c2ccccc2C(=O)O)cc(OC)c1OC	%	78.7
O=C1c2ccccc2OC=C(c2ccccc2)N1CCCCNc1ccc(F)cc1	%	98.3
NC(=S)NNC1CCCCC1	%	100
COCCNC(C(=O)c1ccccc1)c1ccccc1 (stereo unspecified)	%	88.4
Cc1ccc(N(CC2=NCCN2)c2cccc(O)c2)cc1	%	93.8
O=C1c2ccccc2OC=C(c2ccccc2)N1CCCCN1CCCCC1	%	87.1
C/C(=N\N=C1/SCC(=O)N1c1ccccc1)c1ccco1	%	89.2
COc1ccc(CNc2nc3ccccc3c3c(=O)c4ccccc4sc23)cc1OC	%	64.2
COc1ccc(Cn2cc3c(c2-c2cc(OC)c(OC)c(OC)c2)CCc2c(CO)noc2-3)cc1	%	18.2

* * *

Documented growth across a set of molecules
# Test system: OVCAR-8 ovarian
# Method description: NCI-60 one-dose screen, 48 h (100 = growth as untreated, 0 = no growth, -100 = all killed)
# Measurement context: 10 µM unless noted
About 83,000 compounds went through this panel and 20% of them were active in at least one assay; those are over-represented in the sample as a whole.

Molecule	growth, %
CN(C)c1ccc2cc(-c3nc4ccccc4s3)c(N)nc2c1	67.8
NC(=NCCCOc1ccc(F)cc1)Nc1ccc(Cl)c(Cl)c1	88.6
O=C(C[n+]1cccc(Br)c1)c1ccc2c(c1)CCCC2	108
O=C(CSc1nnc(-c2ccccc2)o1)Nc1ccc(C(=O)/C=C/c2ccccc2)cc1	60.1
C[C@H]1C=C(C[C@@H](O)CCCCCCCCCC[C@@H](O)[C@H]2CCC(=O)O2)C(=O)O1	96.7
CC(C)(C)OC(=O)NCc1cccc(N=C=S)c1	64.4
CCCCOc1nc2ccc(Cl)cc2cc1/C=C/C(=O)/C=C/c1ccc(Cl)cc1	70.2
CCOC(=O)C1CSC(C)(C(=O)OCC)N1 (stereo not drawn)	110

* * *

# Tested on: SK-MEL-28 melanoma
# Method description: NCI-60 one-dose screen, 48 h (100 = growth as untreated, 0 = no growth, -100 = all killed)
# Measurement context: 10 µM unless noted
This is part of a sample that, as a whole, favours compounds with a hit. Of some 83,000 tested, about 20% had one in any assay.

Molecule	Measurement units	growth
O=C(NCCNc1nccc(-c2c(-c3cccc(O)c3)nc3sccn23)n1)c1ccccc1O	%	41.4
O=C(c1cc(-c2ccc(Cl)cc2)nc2ccccc12)N1N=C(c2ccccc2)CC1c1cc(-c2ccccc2)nn1-c1ccccc1 (centres undefined)	%	73.3
c1nc(SC2=NCCN2)c2[nH]cnc2n1	%	95.4
COc1ccc2c(c1)OC(N(C(C)=O)C(C)=O)=C(C#N)C2c1ccc(F)cc1 (centres undefined)	%	64.4
CCc1cccc(C)c1NC(=O)c1sc2nc3c(cc2c1N)CCCCC3	%	67.6
CCCC(=O)Oc1ccc(/C(=C(\C)c2ccc(OC)cc2)c2ccc(OCCN3CCCCC3)cc2)cc1	%	63.9
Cc1nc(-c2ccc(Cl)cc2)ccc1NC(=O)Nc1cccc(C(F)(F)F)c1	%	110
CCC(N)(C(=O)O)c1ccc(F)cc1 (centres undefined)	%	112
COc1cc(-c2nc3ccccc3s2)ccc1OCc1nc2n(n1)S(=O)(=O)c1ccccc1N2c1ccccc1	%	110
CC(NCCC(c1ccccc1)c1ccccc1)c1ccccc1 (centres undefined)	%	75.5
O=C(NCCNc1nccc(-c2c(-c3cccc(O)c3)nc3sccn23)n1)Nc1cc(C(F)(F)F)cc(C(F)(F)F)c1	%	68.8
O=C(NCCNc1nccc(-c2c(-c3cccc(O)c3)nc3sccn23)n1)c1cc(N2CCOCC2)cc(C(F)(F)F)c1	%	44.4
C=C1C(=O)O[C@H]2[C@H]1CC/C(C(=O)Nc1ccc(OC)c(C(N)=O)c1O)=C\CC[C@@]1(C)O[C@@H]21	%	52.9
CCc1c(C)c2cc(-n3c(-c4ccc(OC)cc4)csc3=N)c(O)c(C)c2oc1=O	%	28.6
O=C(NCCNc1nccc(-c2c(-c3cccc(O)c3)nc3sccn23)n1)Nc1cccc(C(F)(F)F)c1	%	48.8
NC(=O)C1=C[C@H]2[C@H]3C=C[C@@]2(O)C(=O)O[C@@H]3O1	%	25.2
COc1ccc(-c2nnc(SCC(=O)N3CCN(c4cc5c(cc4F)c(=O)c(C(=O)O)cn5C4CC4)CC3)o2)cc1OC	%	95.2
COc1cc(NC(C)CCCN2C(=O)c3ccccc3C2=O)c2nc(C)ccc2c1OC (centres undefined)	%	97.4
C=CCn1c(SCC(=O)Nc2ccc(/C(C)=N\O)cc2)nnc1-c1cc(-c2ccc(OC)cc2)nc2ccccc12	%	61.7

* * *

# Test system: SK-OV-3 ovarian
# Method description: NCI-60 one-dose screen, 48 h (100 = growth as untreated, 0 = no growth, -100 = all killed)
# Measurement context: 10 µM unless noted
About 83,000 compounds went through this panel and 20% of them were active in at least one assay; those are over-represented in the sample as a whole.
The reader will find reported growth values listed item by item below.
Observable: growth (%)

Compound	Value observed
Cc1ccc(/C=C2/C(=O)Nc3cc(Cl)c(-c4csc(N)n4)cc32)cc1	77.7
CN1C(=O)C2(NN=C(c3cccc4ccccc34)S2)c2ccccc21 (stereo not given)	26.5
CC(=O)Oc1ccc(C(OC(C)=O)OC(C)=O)cc1	97.6
O=C(Nc1ccc(-n2ccc3c(NC(=O)c4ccccc4)nccc32)cc1)Nc1ccc(Cl)c(Cl)c1	59.7
FC(F)(F)c1cn(CC2CNC2)c2ncnc(Cl)c12	108
O=C(NOC1OC(CO)C(O)C(O)C1O)Nc1ccccc1 (stereo not given)	95.7
C#C[C@H](O)/C=C/CCCCCCC#C[C@H](O)CC[C@@H](O)C#CCCCCCC/C=C/[C@@H](O)C#C	105
c1ccc([Se]CCCN2CCN(CCC[Se]c3ccccc3)CC2)cc1	113
COc1cccc(C2CC(c3cc(OC)c(OC)c(OC)c3)=NN2)c1 (stereo not given)	89.9
COc1cc(-c2nc3ccccc3s2)ccc1OCc1nc2n(n1)S(=O)(=O)c1ccccc1N2C	84.6
